Ref: patent US20220411492A1

Target: T1, human Claudin 18.2 (hCLDN18.2) (human, UniProt P56856-2 1-261)
T1 construct: whole, on cells; also called CLDN18A2; claudin 18 splice variant 2
Assay: FACS, HEK293-hCLDN18.2 cells
property-measured: Mean maximum fluorescence intensity (Top MFI)
Record the value in MFI, omitting the unit from your answer.

# annotated cases, reported Mean maximum fluorescence intensity (Top MFI) shown
binder	measurement
ch-287F12 (antibody, V domains shown, also called chimeric antibody of clone 287F12) VH: QIQLVQSGPELKRPGETVRISCKASGFTFTTAGMHWVQKMAGKGLKWLGWTNTHSGEPKYAEDFKGRFAFSLDTSGSDAYLQIGNLKYEDAATYFCAKWGRGNALDYWGQGTSVTVSS VL: DIVMTQSPSSLTVTAGEKVTMTCKSSQSLLNSGNQKNYLTWYQQKPGQPPKLLIYWASTRESGVPDRFTGSGSGTDFTLTINTVQAEDLAVYYCQNTYSYPLTFGGGTKLELR	10900
ch-253C4 (antibody, V domains shown, also called chimeric antibody of clone 253C4) VH: QVQLKQSGAELVRPGASVSLSCKTSGYIFTSYWIHWVKQRSGQGLEWIGRFYPGTGTAYYNENFEGKATLTADRSSSTAYMQLSSLKSDDSAVYFCTREGYGKGNAMDYWGQGTSVTVSS VL: DIVMTQSPSSLTVTTGEKVTLSCKSSQSLLNSGNQKNYLTWYQQKSGQPPELLIYWASTRESGVPDRFTGSGSGTDFTLTVSSVQAEDLAVYYCQNDYYFPFTFGGGTKLEIK	10300

Field: next binder
// ch-39C8 (antibody, V domains shown, also called chimeric antibody of clone 39C8) VH: QVQLQQSGAGLVKPGASVKISCKASGYAFSSYWMIWVKQRPGKGLEWIGQIYPGDGDTNYNGKFKGKATLTADKSSSTAFMQLSSLTSEDSAVYFCTRIYYGNAFAYWGQGTLVTVSA VL: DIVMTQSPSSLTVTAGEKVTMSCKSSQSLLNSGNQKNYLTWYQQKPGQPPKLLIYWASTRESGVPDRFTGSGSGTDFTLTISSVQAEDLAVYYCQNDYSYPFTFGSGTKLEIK : Mean maximum fluorescence intensity (Top MFI) value = 7820
